System: RARb:RXRa (NR concentration 270 nM, RXRa partner concentration 90 nM)
Experiment: PBM binding z-score (relative to random genomic background probes); higher = stronger binding; sequences stand for … in GC…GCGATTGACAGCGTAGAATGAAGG
Class key for PBM binding z-score values: low bracket = under 1, middle bracket = from 1 up to 4, high bracket = 4 and over

Previously resolved entries follow.
- ordered-residues: "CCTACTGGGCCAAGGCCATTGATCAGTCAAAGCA"
  assigned-class: "low bracket"
- ordered-residues: "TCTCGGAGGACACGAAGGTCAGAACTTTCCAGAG"
  assigned-class: "middle bracket"

For this sequence, which bin applies? `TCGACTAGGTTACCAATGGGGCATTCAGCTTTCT` middle bracket

For this sequence, which bin applies? `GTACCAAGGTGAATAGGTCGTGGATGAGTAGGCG` middle bracket
